experiment: ATG_EGR_CIS: Attagene CIS-FACTORIAL HepG2 Assay for human Early Growth Response 1 (EGR1) (AID 2282938); conditions: HepG2 Attagene CIS-FACTORIAL EGR reporter mRNA; actives raise or lower the signal
Active and inactive are the calls of the source. How the source made its calls: active means hit-call score of the fitted dose curve at least 0.9, where 1 is the maximum; inactive means score below 0.9.
The reply should name one outcome from active, inactive

O=C1O[C@@H]2[C@@H](O)[C@H](O)O[C@@H]2[C@H]1O
inactive
CCCCC/C=C/C=C/C=O
inactive
CC(CC(C)(C)C)CC(C)(C)CC(C)(C)C (stereo unspecified)
inactive
CCCCCNCCCCC
inactive
O=Nc1ccc(Nc2ccccc2)cc1
active
CC(=O)Nc1ccccc1O
inactive
CCCCCOC(=O)CCC
inactive
NCCCCCCN
inactive

Problem: Just curious, what result did CO[Si](C)(OC)c1ccccc1 get here?
Solution: inactive

Problem: Just curious, what result did CSc1nc(NC2CC2)nc(NC(C)(C)C)n1 get here?
Solution: inactive

Problem: Just curious, what result did CCc1ccc(C=O)cc1 get here?
Solution: inactive

###

target: Transcription factor Sp1 (Homo sapiens); test: ATG_Sp1_CIS: Attagene CIS-FACTORIAL HepG2 Assay for human Specificity Protein 1 (Sp1) (AID 2282961); settings: HepG2 Sp1 cis-reporter transcription, actives raise or lower the signal
The source made the active and inactive calls. Rule for the calls: active = hit-call score of the fitted dose curve at least 0.9, where 1 is the maximum; inactive = score below 0.9.
The reply should name one outcome from YES = active, NO = inactive

Here's what some known entries look like.
CC(C)C[C@H]1C(=O)N2CCC[C@H]2[C@]2(O)O[C@](NC(=O)[C@@H]3C=C4c5cccc6[nH]c(Br)c(c56)C[C@H]4N(C)C3)(C(C)C)C(=O)N12
YES
CCC(=O)OCCC(C)CCC=C(C)C (centres undefined)
NO
CCCCCCCCCCN
NO

Problem: Just curious, what result did O=CCCc1ccccc1 get here?
Solution: NO

###

molecular target: Peroxisome proliferator-activated receptor gamma (Homo sapiens) (UniProt P37231); assay: ATG_PPARg_TRANS: Attagene TRANS-FACTORIAL HepG2 Assay for human Peroxisome Proliferator-activated Receptor-gamma (PPARg) (AID 2283007)
Sequence (P37231 whole entry, looked up): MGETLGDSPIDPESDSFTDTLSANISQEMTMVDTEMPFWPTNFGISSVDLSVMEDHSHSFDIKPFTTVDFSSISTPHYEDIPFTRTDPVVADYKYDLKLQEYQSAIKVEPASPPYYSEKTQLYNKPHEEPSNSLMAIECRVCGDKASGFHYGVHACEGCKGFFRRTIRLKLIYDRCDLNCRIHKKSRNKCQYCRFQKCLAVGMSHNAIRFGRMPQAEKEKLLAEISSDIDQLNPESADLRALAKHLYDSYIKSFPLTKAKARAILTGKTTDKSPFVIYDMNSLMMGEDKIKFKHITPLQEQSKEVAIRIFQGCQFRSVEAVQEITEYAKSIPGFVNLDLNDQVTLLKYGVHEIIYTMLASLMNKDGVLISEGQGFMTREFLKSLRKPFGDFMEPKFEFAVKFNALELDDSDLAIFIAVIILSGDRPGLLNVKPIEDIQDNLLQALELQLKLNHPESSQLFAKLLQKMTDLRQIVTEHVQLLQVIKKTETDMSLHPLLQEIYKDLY
Records with an inconclusive call do not appear. Active and inactive are the calls of the source. How the source made its calls: active means hit-call score of the fitted dose curve at least 0.9, where 1 is the maximum; inconclusive means response in the unintended direction; inactive means score below 0.9.
The reply should name one outcome from active, inactive

Here's what some known entries look like.
CCCCCCOC(=O)CCCCC
inactive
CCCCCCC#CC(=O)OC
active
CC(C)=CCC[C@](C)(O)[C@@H]1CC=C(C)CC1
inactive
O=C(O)c1snc(Cl)c1Cl
active
CC(C)C[C@H]1C(=O)N2CCC[C@H]2[C@]2(O)O[C@](NC(=O)[C@@H]3C=C4c5cccc6[nH]c(Br)c(c56)C[C@H]4N(C)C3)(C(C)C)C(=O)N12
inactive

Problem: Just curious, what result did C/C=C(\C)C(=O)OCc1ccccc1 get here?
Solution: inactive

Problem: Just curious, what result did CCCCOCCOCCSC#N get here?
Solution: active

###

experiment: ATG_ERE_CIS: Attagene CIS-FACTORIAL HepG2 Assay for Estrogen Response Element (ERE) (AID 2282940); details: HepG2 ERE cis-reporter, Attagene RNA transcript; actives raise or lower the signal
Calls of active or inactive are those of the source. The calls were made as follows: active = hit-call score of the fitted dose curve at least 0.9, where 1 is the maximum; inactive = score below 0.9.
The reply should name one outcome from active, inactive

Here's what some known entries look like.
COc1ccnc(CS(=O)c2nc3cc(OC(F)F)ccc3[nH]2)c1OC (centres undefined)
inactive
CCCCCCOC(=O)CC
inactive
Cc1ccccc1C=O
inactive
O=P(c1ccccc1)(c1ccccc1)c1ccccc1
inactive

Problem: Just curious, what result did COC(=O)Cc1cccc2ccccc12 get here?
Solution: inactive

Problem: Just curious, what result did CC(C)c1ccc(C(C)C)cc1 get here?
Solution: active

Problem: Just curious, what result did COC(=O)C1=C(C)NC(C)=C(C(=O)OCCN(C)Cc2ccccc2)C1c1cccc([N+](=O)[O-])c1 (centres undefined) get here?
Solution: inactive

Problem: Just curious, what result did c1ccc2sc(SN(C3CCCCC3)C3CCCCC3)nc2c1 get here?
Solution: inactive

Problem: Just curious, what result did CCCCCCCCC get here?
Solution: active

Problem: Just curious, what result did CCCCCCCCCCCCCCCC(=O)OC[C@H](O)[C@H]1OC(=O)C(O)=C1O get here?
Solution: inactive

Problem: Just curious, what result did C=C(C)C(=O)O get here?
Solution: inactive

Problem: Just curious, what result did Clc1sc(Cl)c(Cl)c1Cl get here?
Solution: inactive

Problem: Just curious, what result did O=C1CCc2ccccc2O1 get here?
Solution: inactive

Problem: Just curious, what result did Nc1cc(N)cc(C(=O)O)c1 get here?
Solution: inactive
